# Assay summary: C0 in male Sprague-Dawley rat at 3 mg/kg, iv measured after 24 hrs by LC-MS/MS analysis
# Type: ADME, organism-based
# Test settings: in vivo
Bridge positions count the residues as written; N and C are the ends. Square brackets hold non-standard residues; d marks the D form. Peptide text beside a SMILES is read from it. * marks the point of attachment. Heptanoyl(6-Me) = CC(C)CCCCC(=O)*; Dab = NCC[C@H](N)C(=O)O; Dap = NC[C@H](N)C(=O)O
Property name: C0 at 24 h (ng/mL)
Quick reminder: number only, in ng/mL, skip the unit.

Query: For CC(C)CCCCC(=O)N[C@@H](CCN)C(=O)N[C@H](C(=O)N[C@@H](CN)C(=O)N[C@H]1CCNC(=O)[C@H]([C@@H](C)O)NC(=O)[C@H](CCN)NC(=O)[C@H](CCN)NC(=O)[C@H]([C@@H](C)O)NC(=O)[C@@H](Cc2ccccc2)NC(=O)[C@H](CCN)NC1=O)[C@@H](C)O ({Heptanoyl(6-Me)}-[Dab]T[Dap][Dab][Dab][dF]T[Dab][Dab]T; lactam 4-C) , what is its reported C0 at 24 h?
Result: 9810

----------
# System: Pseudomonas aeruginosa
# Assay summary: Antibacterial activity against carbapenem-resistant Pseudomonas aeruginosa clinical isolate 19-3 assessed as inhibition of bacterial growth incubated for 16 to 20 hrs by CLSI protocol based broth microdilution method
# Format: functional
# Test settings: time 16-20 hrs
Bridge positions count the residues as written; N and C are the ends. Square brackets hold non-standard residues; d marks the D form. Peptide text beside a SMILES is read from it. * marks the point of attachment. Heptanoyl(6-Me) = CC(C)CCCCC(=O)*; dNle = CCCC[C@@H](N)C(=O)O; Octanoyl = CCCCCCCC(=O)*; Dab = NCC[C@H](N)C(=O)O; Dap = NC[C@H](N)C(=O)O
Property name: MIC
Remember to put the unit after the number in your answer.

>>> readout_value("CC(C)CCCCC(=O)N[C@@H](CCN)C(=O)N[C@H](C(=O)N[C@H](CCCCN)C(=O)N[C@H]1CCNC(=O)[C@H]([C@@H](C)O)NC(=O)[C@H](CCN)NC(=O)[C@H](CCN)NC(=O)[C@H]([C@@H](C)O)NC(=O)[C@@H](Cc2ccccc2)NC(=O)[C@H](CCN)NC1=O)[C@@H](C)O")
"4 µg/mL"
>>> readout_value("CCCCCCCC(=O)N[C@@H](CCN)C(=O)N[C@H](C(=O)N[C@@H](CCN)C(=O)N[C@H]1CCNC(=O)[C@H]([C@@H](C)O)NC(=O)[C@H](CCN)NC(=O)[C@H](CCN)NC(=O)[C@H]([C@@H](C)O)NC(=O)[C@@H](CCCC)NC(=O)[C@H](CCN)NC1=O)[C@@H](C)O (Octanoyl-[Dab]T[Dab][Dab][Dab][dNle]T[Dab][Dab]T; lactam 4-C)")
"1 µg/mL"

Kindly review the next compound as well.
Query: Any idea what its MIC is? The compound is CC(C)CCCCC(=O)N[C@@H](CCN)C(=O)N[C@H](C(=O)N[C@H](CO)C(=O)N[C@H]1CCNC(=O)[C@H]([C@@H](C)O)NC(=O)[C@H](CN)NC(=O)[C@H](CCN)NC(=O)[C@H]([C@@H](C)O)NC(=O)[C@@H](Cc2ccccc2)NC(=O)[C@H](CCN)NC1=O)[C@@H](C)O ({Heptanoyl(6-Me)}-[Dab]T[dS][Dab][Dab][dF]T[Dab][Dap]T; lactam 4-C)
Result: 8 µg/mL
